Target: S. aureus ThrRS (Staphylococcus aureus)
Sequence (Q2FXP7 1-645): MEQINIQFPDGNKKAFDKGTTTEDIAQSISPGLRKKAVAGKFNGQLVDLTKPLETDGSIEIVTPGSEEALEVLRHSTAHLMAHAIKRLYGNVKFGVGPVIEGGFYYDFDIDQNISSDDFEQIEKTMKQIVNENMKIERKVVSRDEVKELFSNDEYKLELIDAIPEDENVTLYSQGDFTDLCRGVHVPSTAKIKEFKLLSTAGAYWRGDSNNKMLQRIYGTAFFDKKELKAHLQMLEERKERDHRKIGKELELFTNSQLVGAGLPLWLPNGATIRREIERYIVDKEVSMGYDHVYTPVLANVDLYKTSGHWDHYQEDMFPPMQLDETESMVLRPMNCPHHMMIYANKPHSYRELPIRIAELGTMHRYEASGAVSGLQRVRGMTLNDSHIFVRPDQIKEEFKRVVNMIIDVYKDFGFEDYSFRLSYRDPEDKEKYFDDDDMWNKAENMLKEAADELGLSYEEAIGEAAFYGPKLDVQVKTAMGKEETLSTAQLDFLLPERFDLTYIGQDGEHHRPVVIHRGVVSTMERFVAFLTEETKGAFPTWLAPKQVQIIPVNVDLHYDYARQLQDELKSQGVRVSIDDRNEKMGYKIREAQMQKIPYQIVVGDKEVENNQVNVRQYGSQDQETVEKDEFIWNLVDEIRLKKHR
Experiment: In vitro aminoacylation assay
Format: biochemical
Details: read-out: inhibition of S. aureus ThrRS
EXPERIMENTAL ENDPOINT: inhibition at 100 µM (%)

Provide only the value of recorded inhibition at 100 µM for Cc1ccc([N+](=O)[O-])cc1NC(=O)COc1ccccc1C(C)(C)C 85.6

Provide only the value of recorded inhibition at 100 µM for COc1ccc(C(=O)CSc2nc3ccc([N+](=O)[O-])cc3s2)cc1 88.5

Provide only the value of recorded inhibition at 100 µM for Cc1cc(I)ccc1N1C(=O)CC(Sc2ncccc2C(=O)O)C1=O (stereo not shown) 78.6

Provide only the value of recorded inhibition at 100 µM for CCOC(=O)c1c(-c2ccc(Cl)cc2)csc1NC(=O)CN1CC(C)OC(C)C1 (stereo not shown) 78.3

---

Test: MTT assay, cytotoxicity
Type: cell-based, human
Details: human, HEK293 cells
EXPERIMENTAL ENDPOINT: EC50 at 72 h

Provide only the value of recorded EC50 at 72 h for Cc1cc(I)ccc1N1C(=O)CC(Sc2ncccc2C(=O)O)C1=O (stereo not shown) [compound 11] > 100 µM
